FYI, the data here is from patent US8815857B2.

Assay: Assessment of solubility: HT solubility in pION buffer, UV spectrophotometry
Details: pH 6.8, aqueous buffer, kinetic from dmso stock, Solubility (pH 6.8), pH 6.8
experimentalReadout: solubility (mg/mL)

>  <compound>
Cc1ccc(OCc2ccc(C(=O)N3CCCCCC3)cc2C)c(-c2csc(N3C[C@H]4CC[C@@H](C3)[C@H]4C(=O)O)n2)c1

>  <solubility / mg/mL>
0.0046

$$$$
>  <compound>
Cc1ccc(OCc2ccc(C(=O)N3CC[C@H](CO)C3)cc2C)c(-c2csc(N3C[C@H]4CC[C@@H](C3)[C@H]4C(=O)O)n2)c1

>  <solubility / mg/mL>
0.059

$$$$
>  <compound>
Cc1ccc(OCc2ccc(C(=O)N(C)CC#N)cc2C)c(-c2csc(N3C[C@H]4CC[C@@H](C3)[C@H]4C(=O)O)n2)c1

>  <solubility / mg/mL>
0.04

$$$$
>  <compound>
Cc1ccc(OCc2ccc(C(=O)N3CCNC(=O)C3)cc2C)c(-c2csc(N3C[C@H]4CC[C@@H](C3)[C@H]4C(=O)O)n2)c1

>  <solubility / mg/mL>
0.068

$$$$
>  <compound>
Cc1ccc(OCc2ccc(C(=O)N(C)Cc3ccn(C)n3)cc2C)c(-c2csc(N3C[C@H]4CC[C@@H](C3)[C@H]4C(=O)O)n2)c1

>  <solubility / mg/mL>
0.052

$$$$
>  <compound>
Cc1ccc(OCc2ccc(CN3CCN(C)C(=O)C3C)cc2C)c(-c2csc(N3CC4CCC(C3)C4C(=O)O)n2)c1 (centres unmarked)

>  <solubility / mg/mL>
0.021

$$$$

I = Cc1ccc(OCc2ccc(CN3CCS(=O)(=O)CC3)cc2C)c(-c2csc(N3C[C@@H]4[C@H](C3)[C@@H]4C(=O)O)n2)c1
II = Cc1ccc(OCc2ccc(C(=O)N3CCCCC3)cc2C)c(-c2csc(N3CC(C4(C(=O)O)CC4)C3)n2)c1
III = Cc1ccc(OCc2ccc(CN3CCOCC3)cc2OC(F)(F)F)c(-c2csc(N3C[C@H]4CC[C@@H](C3)[C@H]4C(=O)O)n2)c1
IV = Cc1ccc(OCc2ccc(C(=O)N3CCC(F)(F)C3)cc2C)c(-c2csc(N3C[C@H]4CC[C@@H](C3)[C@H]4C(=O)O)n2)c1
V = Cc1ccc(OCc2ccc(CN3C[C@@H](C)O[C@@H](C)C3)cc2C#N)c(-c2csc(N3C[C@H]4CC[C@@H](C3)[C@H]4C(=O)O)n2)c1
Task: Please list these compounds in decreasing order of solubility. Give the order by naming the labels one after another as requested.
Output: I, IV, II, V, III
(I: 0.065 mg/mL, IV: 0.036 mg/mL, II: 0.014 mg/mL, V: 0.0016 mg/mL, III: 0.0009 mg/mL)

1 = Cc1ccc(OCc2ccc(C(=O)N3CCCCC3)cc2C)c(-c2csc(N3CC4(CC4C(=O)O)C3)n2)c1 (centres unmarked)
2 = CCN1CCN(Cc2ccc(COc3ccc(C)cc3-c3csc(N4CC5CCC(C4)C5C(=O)O)n3)c(C)c2)CC1=O (centres unmarked)
3 = Cc1ccc(OCc2ccc(C(=O)N3CC[C@H](O)C3)cc2C)c(-c2csc(N3C[C@H]4CC[C@@H](C3)[C@H]4C(=O)O)n2)c1
4 = Cc1ccc(OCc2ccc(CN3CCS(=O)(=O)CC3)cc2C)c(-c2csc(N3CC(CC(=O)O)C3)n2)c1
Task: Order the entries by their reported solubility, beginning at the minimum. Give the order by naming the labels one after another as requested.
Output: 4, 2, 1, 3
